Below is a list of entries, each paired with its recorded Plant response rating, Cheatgrass value.
test system: cheatgrass; test: Test B preemergence/postemergence greenhouse plant response rating 0 to 10; type: in vivo, Bromus secalinus; details: PREEMERGENCE, Rate 50 g/ha; 0 to 10 scale
Give a plain numeric answer without units written out.

Q: Request the reported Plant response rating, Cheatgrass associated with O=C1COc2cc(F)c(-c3nn4c(c3Br)CCCC4)cc2N1
Ans: 2

Q: Likewise for CC(C)OC(=O)COc1cc(-c2nn3c(c2Br)CCCC3)c(F)cc1Cl ?
Ans: 2

Q: Query C#CCOC(=O)COc1cc(-c2nn3c(c2Cl)CCCC3)c(F)cc1Cl next
Ans: 2

Q: Try this compound next: CC(C)COc1cc(-c2nn3c(c2Cl)CCCC3)c(F)cc1Cl
Ans: 0

Q: Now the compound CCC(C)Oc1cc(-c2nn3c(c2Cl)CCCC3)c(F)cc1Cl (stereo not drawn)
Ans: 0

New cases:
Q: Which measured Plant response rating, Cheatgrass value corresponds to CC(C)OC(=O)c1cc(-c2nn3c(c2Cl)CCCC3)c(F)cc1Cl ?
Ans: 2

Q: Okay, and COC(=O)c1cc(-c2nn3c(c2Cl)CCCC3)c(F)cc1Cl ?
Ans: 2
